- TESTED_TARGET: T1, TP-30 (also: biotinylated, site not given here)
- T1 construct: also called TP-30 peptide
- T1 peptide: PKHNSNRQLERSGRF
- METHOD_DESCRIPTION: indirect ELISA, biotinylated 15-mer on streptavidin plate, hybridoma supernatant
Where no end group is shown, it is not given here.
MEASUREMENT_KIND: binding result

binder="ACI-7062-412E12-Ab1 (antibody, IgG1, V domains shown, also called 412E12A2; clone 10) VH: DVQLVESGGGLVQPGGSRRLSCAASGFTFSRFGMHWVRQAPEKGLEWVAYIRSGSDIIYYADSVKGRFTISRDNPENTLFLQMTSLRSEDTAMYYCARSGTTVPFDYWGQGTSLTVSS VL: DIVMTQSPSSLAMSVGQKVTMSCKSSQSLLNSGDQKNYLAWYQQKPGQSPELLLYFASTRASGVPDRFIGSGSGTDFSLTISSVQAEDLADYFCQQHYSIPLTFGAGTKLELKR" observed="no binding"
binder="ACI-7062-415C4-Ab1 (antibody, IgG1, V domains shown, also called 415C4C6; clone 14) VH: QVTLKESGPGILQPSQTLSLTCSFSGFSLSTYGIGVGWIRQPSGKGLEWLAHIWWNDNKYYKTALKSRLTISKDTSNNQVFLKIASVDTADSATYYCARVYGNLYYFGYWGQGTTLTVSS VL: DVLMTQTPLSLPVSLGDQASISCRSSQSIVHSTGNTYLEWYLQKPGQSPKLLIYKVSNRFSGVPDRFSGSGSGTDFTLKISRVEAEDLGVYYCFQGSRVPTFGAGTKLELKR" observed="no binding"
